Source listed as paper PMC6896172.

Test system: VCaP cells
assayExplanation: MTT cytotoxicity assay in VCaP cells
Assay type: cell-based
conditions: Homo sapiens, 48 h of treatment, cancer
testReadout: pIC50
Give bare numbers, as −log10 of the molar value.

These solved cases illustrate the format of a correct answer.
• CC1(C)OC2OC(C(O)COC3=CC(=O)c4cccc(O)c4C3=O)C(O)C2O1 (stereo not shown) = 5.51
• CC1(C)OC2OC(C(O)COC3=CC(=O)c4c(O)cccc4C3=O)C(O)C2O1 (stereo not shown) = 5.09
• O=C1C(OC[C@H]2OC(O)[C@H](O)[C@@H](O)[C@@H]2O)=CC(=O)c2c(O)cccc21 (stereo partly shown) = 4.25

Now turn to the next molecule.
Problem: Form field - read-out: pIC50; system: VCaP cells; submitted item: O=C1C=C(OC[C@H]2OC(O)[C@H](O)[C@@H](O)[C@@H]2O)C(=O)c2c(O)cccc21 (stereo partly shown)
Solution: 4.24
